Taken from ChEMBL document CHEMBL1201862.

Give measured GI50 for each item. Keep answers brief.
# Tested on: SK-MEL-5
# Test: NCI tumour cell line growth inhibition, 48 h
Active and inactive are the calls of the source. Rule as the data show it: active = GI50 up to about 1.1 µM and inactive = higher.

Input `O=C(O)c1ccccc1SCc1cccc2c(=O)c3ccc(Cl)cc3oc12` . Output GI50: > 50 µM (inactive)

Reported GI50 of `Nc1nc(Cl)cc(NCC2(O)CC2)n1` : > 100 µM (inactive)

// GI50 lookup, compound = `c1cc(CSSCc2ccncc2)ccn1` , result: 17.7 µM (inactive)

For `CCN(CC)C(=O)C1=C(C)NC(C)=C(C(=O)N(CC)CC)C1` the compound record lists GI50 as > 100 µM (inactive)

For record `Cc1ccc2c(=O)[nH]sc2c1` the listed GI50 is 12.9 µM (inactive)

Kindly note the recorded GI50 for `Cc1cccc2c(N)c3cccc(C(=O)NCC[N+](C)(C)[O-])c3nc12` , which is 22.8 µM (inactive)

get_value(item= `CC(=O)c1c(C)[n+]([O-])c2cc(Cl)c(Cl)cc2[n+]1[O-]` , readout=GI50) returns 11.6 µM (inactive)

Entry CN(C)c1ccc(/C=C(\NC(=O)c2ccccc2)C(=O)NC(CCC(=O)O)C(=O)O)cc1 (centres undefined) ; GI50 = > 100 µM (inactive)

For record `CC(=O)NNc1nc(C)c(C(/C=C/c2ccc(Cl)cc2)=N\N=C(N)N)s1` the listed GI50 is > 100 µM (inactive)
